TESTED_SYSTEM: KRAS-G12V antigen peptide (Homo sapiens, UniProt P01116, G12V)
EXPERIMENT_SUMMARY: Emax and EC50 (functional avidity) of TCR MHC-II binding region mutants, Jurkat-NFAT-Luc with peptide-loaded SW620-DPB cells
Assay type: cell-based
Parameters: expressed in transfected cells; host or cells: SW620-DPB cells (SW620 expressing HLA-DPB1*03:01); the peptide is synthetic
EXPERIMENTAL_CONDITIONS: G12V antigen peptide 10 μg/ml, 10-fold dilution, 5 concentrations
Provide the reported Emax relative to WT of each item.
One number for each entry, in %.

// below: answered molecules
MOLECULE	Emax relative to WT, %
α51I-Y: B13.14.1 TCR Vα point mutant (protein) TCR alpha: AQSVAQPEDQVNVAEGNPLTVKCTYSVSGNPYLFWYVQYPNRGLQFLLKYYTGDNLVKGSYGFEAEFNKSQTSFHLKKPSALVSDSALYFCAVRDGRGGGNKLTFGTGTQLKVEL TCR beta: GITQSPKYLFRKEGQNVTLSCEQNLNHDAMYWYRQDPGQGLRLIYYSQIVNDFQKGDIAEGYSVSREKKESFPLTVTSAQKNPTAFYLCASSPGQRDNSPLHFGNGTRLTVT	94
α51I-W: B13.14.1 TCR Vα point mutant (protein) TCR alpha: AQSVAQPEDQVNVAEGNPLTVKCTYSVSGNPYLFWYVQYPNRGLQFLLKYWTGDNLVKGSYGFEAEFNKSQTSFHLKKPSALVSDSALYFCAVRDGRGGGNKLTFGTGTQLKVEL TCR beta: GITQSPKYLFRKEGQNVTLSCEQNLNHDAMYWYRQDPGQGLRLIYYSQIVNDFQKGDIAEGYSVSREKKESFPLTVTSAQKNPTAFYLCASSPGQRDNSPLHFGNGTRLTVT	134

Now let's try a different one.
Indicate its recorded Emax relative to WT; the molecule in question is β50Q-T (TCR) TCR alpha: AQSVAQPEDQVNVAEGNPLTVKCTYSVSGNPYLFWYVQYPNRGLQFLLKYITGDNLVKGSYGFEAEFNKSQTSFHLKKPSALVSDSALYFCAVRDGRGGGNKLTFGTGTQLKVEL TCR beta: GITQSPKYLFRKEGQNVTLSCEQNLNHDAMYWYRQDPGQGLRLIYYSTIVNDFQKGDIAEGYSVSREKKESFPLTVTSAQKNPTAFYLCASSPGQRDNSPLHFGNGTRLTVT 78
